Assay: yeast display, Sf9 membrane polyspecificity reagent, FACS + sequencing; frameworks hold sequencing errors
ENDPOINT: polyreactivity (PSR sort gate)

1. QVQLVESGGGLVQAGGSLRLSCAASGSTFDRNAMGWYRQAPGKERELVAAINWRGGSTYYADSVKGRFTISRDNAKNTVYLQMNSLKPEDTAVYYCAKRQYSSDGRGFGYWGQVTQVTVSS | high polyreactivity
2. QVQLVESGGGLVQAGGSLRLSCAASGRTFVSYVMGLYRQAPGKERELVAAITWRGGSTYYADSVKGRFTISRDNAKNTVYLQMNSLKPEDTAVYYCNADYRYIWTYWGWTIYDYWGQGTQVTVSS | high polyreactivity

* * *

Experiment: yeast display, Sf9 membrane polyspecificity reagent, FACS + sequencing; frameworks hold sequencing errors
ENDPOINT: polyreactivity (PSR sort gate)

Consider the worked cases shown below.
1. QVQLVESGGGLVQAGGSLRLSCAASGITFYVYAMGWYRQAPGKERELVAAISSGSSTYYSDSVKGRFTISRDNAKNTVYLQMNSLKPEDTAVYYCAARYRKYLSEYWGQGTQVTVSS | high polyreactivity
2. QVQLVESGGGLVQAGGSLRLSCAASGLIFSWYDMGWYRQAPGKERELVDAITTDGDDTYYADSVKGRFTISRDNAKNTVYLQMKSLKPEDTAVYYCDAVSEVAIRYPDRDYDSWGQGTQVTVSS | low polyreactivity
3. QVQLVESGGGLVQAGGSLLLSCAASGRIFQFYAMGWYRQAPGKERELVAGITTSGGSTYYADSVKGRFTISRDTAKNTVYLQMNSLKPEDTAVYYCAKRYYSSQFSKFGYWGQGSQVTVSS | high polyreactivity
4. QVQLVESGGGLVQAGGSLRLSCAASGSTFLDYAMGWYRQAPGQERELVAAITSVGGTYADSVKGRFTISRDKAKNTVYLQKNSLKPEDTAGYYCAADADFWYYVVHRGSTFDYSGQGTQVTVSS | low polyreactivity
5. QLQLEESGGGLVQAGGSLRLSCAASANTIYQYAMGRYRQAPGKERELVAAIDWSGGSTYADSVKGRFTISRDNAKNTVYLQMNSLKPEDTAFYYCNASVKPSNVWSRGYDYWGQGTQVTVSS | low polyreactivity

Q: What polyreactivity (PSR sort gate) value was documented for this sequence, QVQLVESGGGLVQAGGSLRLSCAASGRIFPGYAMGWYRQAPGKERELVAAISTNGGRTYYADSVKGRFTISRDNAKNTVYLQMNSLKPEDTAVYYCNAARAVYTQKRFDSWGQGTQVTVSS ?
Ans: high polyreactivity

Q: Using the record for QVQLVESGGGLVQAGGSLRLSCAASGFILYRYAMGWDRQAPGKDRELVAAITRRGGSTYYADSVKGRFTISRDNAKNTVYLQMNSLKPEDTAVYYCNADIGVYGTSDLDYWGQGTQVTLSS , report its polyreactivity (PSR sort gate).
Ans: high polyreactivity

Q: Consider the sequence shown here: QVQLVESGGGLVQAGGSLRLSCAASGIIFGFYAMGWYRQAPGKERELVAAITIDGSTYYADSVKGRFTISRDNAKTTVYLQMNILKPEDTAVYYCGAQYLNVYYWEDYLGQGTQVTVSS What is its recorded polyreactivity (PSR sort gate)?
Ans: low polyreactivity

Q: Any idea what its polyreactivity (PSR sort gate) is? The sequence is QVQLVESGGGLVQAGGSLRLSCSASGFIFDVYAMGWYRPAPGKERELVAAISRSGGSTYYADSVKGRFTISRDNAKNTVYLQMNSLKPEDTAVYYCATVLLNNVDYDYWGQGTQVTVSS
Ans: low polyreactivity

Q: What measured polyreactivity (PSR sort gate) goes with QVQLVESGGGLVQAGGSLRLSCAASGRTFRYYVMGWYRQAPGKERELVASITWRGTSTYYADSVKGRFTISRDNAKNTVYLQMNSLKPEDTAVYYCNAQGVYFRWSGYDYWGQGTQVTVSS ?
Ans: high polyreactivity

Q: Request the reported polyreactivity (PSR sort gate) associated with QVQLVESGGGLVQAGGSLRLSCAASGSTFGYNAMGWYRQAPGKERELVAAISRSGGRTYYADSVKGRFTISRDNAKNTVYLQMNSLKPEDTAVYYCATYYTNKVPARYYWGQGTQVTVSS
Ans: high polyreactivity

Where do these numbers come from? They come from the nanobody polyreactivity screen of Harvey et al. (2022).
